molecular target: T1, Homo sapiens factor Bb protein (human, UniProt P00751 260-764); assay: SPR single cycle kinetics; ratio against VH0/Vκ0
T1 construct: Bought from CompTech (A155); also called complement factor Bb; human factor Bb
T1 sequence (P00751 260-764 limits assumed): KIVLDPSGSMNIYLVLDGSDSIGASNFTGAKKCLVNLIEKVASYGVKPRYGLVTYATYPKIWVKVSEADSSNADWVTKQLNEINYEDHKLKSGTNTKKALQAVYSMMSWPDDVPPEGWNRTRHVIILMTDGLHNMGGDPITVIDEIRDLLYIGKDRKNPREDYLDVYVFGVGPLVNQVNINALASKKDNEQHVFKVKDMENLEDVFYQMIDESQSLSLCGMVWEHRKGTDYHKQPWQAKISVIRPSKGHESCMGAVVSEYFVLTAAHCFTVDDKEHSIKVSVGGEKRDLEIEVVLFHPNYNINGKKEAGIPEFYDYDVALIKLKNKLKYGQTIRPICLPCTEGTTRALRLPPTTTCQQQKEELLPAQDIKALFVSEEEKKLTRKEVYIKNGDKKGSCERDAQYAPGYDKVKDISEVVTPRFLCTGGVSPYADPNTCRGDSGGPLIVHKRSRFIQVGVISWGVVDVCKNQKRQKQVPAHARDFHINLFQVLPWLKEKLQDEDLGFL
result.type: Relative KD
One number for each entry.

Which Relative KD reading was recorded for the binder VH0/Vκ0 (Chimeric) (antibody, V domains shown, also called chimeric antibody) VH: EVQLVESGGALVKPGGSLKLSCAASGFTFSNYAMSWVRQTPEKRLEWVATISNRGSYTYYPDSVKGRFTISRDNAKNTLYLQMSSLRSEDTALYYCARERPMDYWGQGTSVTVSS VL: DIVMTQSHKFMSTSVGDRVSITCKASQDVGTAVAWYQQKPGQSPKLLIYWASTRHTGVPDRFTGSGSGTDFTLTITNVQSEDLAVYFCHQHSSNPLTFGAGTKLELK ? 1
